# Read-out: Collagen I, COL1A1 (gene 1277)
# assay_remarks: BSK_MyoF_CollagenI: BioMAP Diversity Plus: MyoF Assay for Collagen I Biomarker Activity (AID 2284238)
# condition_context: primary human lung fibroblasts
Active and inactive are the calls of the source. Rule for the calls: active = hit-call score of the fitted dose curve at least 0.9, where 1 is the maximum; inactive = score below 0.9.
// classify into class 1 for active, class 0 for inactive

Answered cases to consult:
CC(=O)Nc1ccc(C(=O)CCl)cc1 : class 1
CN(C)C(=O)Nc1ccc(Oc2ccc(Cl)cc2)cc1 : class 0
c1ccc2cc(Nc3ccc(Nc4ccc5ccccc5c4)cc3)ccc2c1 : class 0
CCN(CC)C(=O)N(CC)CC : class 0
Oc1c(Cl)cc(Cl)c(Cl)c1Cc1c(O)c(Cl)cc(Cl)c1Cl : class 1

Exercise: Please let me know the test result on file for CCCCCCCCCCCCCCCC(=O)OC/C=C(C)/C=C/C=C(C)/C=C/C1=C(C)CCCC1(C)C .
Solution: class 0

Exercise: Please let me know the test result on file for CN(C)C(=S)SC(=S)N(C)C .
Solution: class 0

====

# assay_remarks: ATG_MRE_CIS: Attagene CIS-FACTORIAL HepG2 Assay for human Metal Responsive Element (MRE) (AID 2282954)
# condition_context: HepG2 MRE cis-reporter transcription, Attagene multiplex; actives raise or lower the signal
The source made the active and inactive calls. How the source made its calls: active means hit-call score of the fitted dose curve at least 0.9, where 1 is the maximum; inactive means score below 0.9.
endpoint: AC50

CCCCCCOC(=O)CCC : inactive
OCC#CCO : inactive
CCOC(=O)COC(=O)c1cc(Oc2ccc(C(F)(F)F)cc2Cl)ccc1[N+](=O)[O-] : inactive
CN(C)c1cccc(O)c1 : inactive
CCCCCCCCCCCCCC(=O)OCC(O)CO (stereo not drawn) : inactive

Exercise: Sample C=CC(=O)OCCC#N — what was its AC50?
Solution: 86.2 µM (active)

Exercise: Sample COS(=O)(=O)O — what was its AC50?
Solution: inactive

Exercise: Sample CCCCCCCCSCCO — what was its AC50?
Solution: 153 µM (active)

====

# system: CCAAT/enhancer-binding protein beta (Homo sapiens) (UniProt P17676)
# Sequence (P17676 whole entry, looked up): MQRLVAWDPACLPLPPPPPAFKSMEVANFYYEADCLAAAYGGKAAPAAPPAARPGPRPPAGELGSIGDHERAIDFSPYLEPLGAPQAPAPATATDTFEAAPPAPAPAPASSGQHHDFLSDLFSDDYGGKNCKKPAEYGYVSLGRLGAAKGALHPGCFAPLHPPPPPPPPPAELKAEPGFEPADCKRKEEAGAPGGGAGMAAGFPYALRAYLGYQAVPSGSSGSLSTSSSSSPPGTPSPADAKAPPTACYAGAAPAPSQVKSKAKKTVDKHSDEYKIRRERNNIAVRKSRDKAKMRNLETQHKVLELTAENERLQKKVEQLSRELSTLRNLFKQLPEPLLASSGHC
# assay_remarks: ATG_C_EBP_CIS: Attagene CIS-FACTORIAL HepG2 Assay for human CCAAT/Enhancer Binding Protein (C/EBP) beta (AID 2282927)
# condition_context: HepG2 Attagene cis-factorial transcription factor reporter; actives raise or lower the signal
Activity calls are given as the source filed them. Rule for the calls: active = hit-call score of the fitted dose curve at least 0.9, where 1 is the maximum; inactive = score below 0.9.
// classify into active, inactive

Answered cases to consult:
C[C@H]1O[C@@H](O[C@H]2[C@@H](O)C[C@H](O[C@H]3[C@@H](O)C[C@H](O[C@H]4CC[C@@]5(C)[C@H](CC[C@@H]6[C@@H]5C[C@@H](O)[C@]5(C)[C@@H](C7=CC(=O)OC7)CC[C@]65O)C4)O[C@@H]3C)O[C@@H]2C)C[C@H](O)[C@@H]1O : active
CS(C)=O : inactive
C=C(CC(=O)O)C(=O)O : inactive
C=C(C)[C@H]1CC=C(C)C(=O)C1 : inactive
C=C(C)[C@@H]1CC=C(C)C(=O)C1 : inactive

Exercise: Please let me know the test result on file for C=C(C)CNCC .
Solution: inactive

Exercise: Please let me know the test result on file for CC1CCC(C(C)C)C(O)C1 (stereo unspecified) .
Solution: inactive

Exercise: Please let me know the test result on file for c1ccc(CCc2ccccc2)cc1 .
Solution: inactive

Exercise: Please let me know the test result on file for CCCCCCOCCOCCO .
Solution: inactive

Exercise: Please let me know the test result on file for C=CC(=O)OCCC#N .
Solution: inactive

Exercise: Please let me know the test result on file for C=CC(=C)CCCC(C)(C)OC(C)=O .
Solution: inactive

Exercise: Please let me know the test result on file for CC(C)(C)c1ccc(C(=O)O)cc1 .
Solution: inactive

Exercise: Please let me know the test result on file for O=[N+]([O-])c1cccc(Cl)c1 .
Solution: inactive

====

# assay_remarks: ATG_RORE_CIS: Attagene CIS-FACTORIAL HepG2 Assay for human RAR-related Orphan Receptor Element (RORE) (AID 2282959)
# condition_context: HepG2 Attagene cis-factorial RORE reporter, mRNA; actives raise or lower the signal
The source made the active and inactive calls. How the source made its calls: active means hit-call score of the fitted dose curve at least 0.9, where 1 is the maximum; inactive means score below 0.9.
// classify into YES = active, NO = inactive

Exercise: Please let me know the test result on file for CCCC(=O)C(CC)Sc1ccoc1C (stereo not given) .
Solution: NO

Exercise: Please let me know the test result on file for COC(C)(C)CCCC(C)CC=O (stereo not given) .
Solution: NO

Exercise: Please let me know the test result on file for BrCc1cccc(Oc2ccccc2)c1 .
Solution: NO

====

# assay_remarks: ATG_CMV_CIS: Attagene CIS-FACTORIAL HepG2 Assay for human CMV (Internal Marker) (AID 2282928);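 note: endpoint acts as a background internal control marker rather than a target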
# condition_context: HepG2 CMV promoter reporter, transcription factor profiling; actives raise or lower the signal
Activity calls are given as the source filed them. How the source made its calls: active means hit-call score of the fitted dose curve at least 0.9, where 1 is the maximum; inactive means score below 0.9.
// classify into active, inactive

Cc1occc(=O)c1OC(=O)C(C)C : inactive
CC/C=C\CCOC(=O)CC : inactive

Exercise: Please let me know the test result on file for c1ccc(Oc2ccccc2)cc1 .
Solution: inactive

====

# system: Nuclear respiratory factor 1 (Homo sapiens) (UniProt Q16656)
# Sequence (Q16656 whole entry, looked up): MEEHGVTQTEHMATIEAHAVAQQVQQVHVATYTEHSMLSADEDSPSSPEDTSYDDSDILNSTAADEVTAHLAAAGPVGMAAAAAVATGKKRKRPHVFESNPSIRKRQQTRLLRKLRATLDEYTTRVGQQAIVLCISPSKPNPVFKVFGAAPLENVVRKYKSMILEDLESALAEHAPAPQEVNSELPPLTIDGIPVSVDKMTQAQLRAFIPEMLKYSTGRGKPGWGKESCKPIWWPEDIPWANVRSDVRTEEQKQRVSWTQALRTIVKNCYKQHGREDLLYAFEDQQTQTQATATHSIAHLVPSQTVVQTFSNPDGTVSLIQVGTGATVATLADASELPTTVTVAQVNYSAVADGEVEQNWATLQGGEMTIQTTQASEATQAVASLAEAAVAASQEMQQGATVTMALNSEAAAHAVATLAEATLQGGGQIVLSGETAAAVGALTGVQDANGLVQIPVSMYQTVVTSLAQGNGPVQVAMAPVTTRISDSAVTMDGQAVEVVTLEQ
# assay_remarks: ATG_NRF1_CIS: Attagene CIS-FACTORIAL HepG2 Assay for human Nuclear Respiratory Factor 1 (NRF1) Orphan Gene (AID 2282987)
# condition_context: HepG2 NRF1 cis-element reporter, Attagene multiplex; actives raise or lower the signal
Active and inactive are the calls of the source. How the source made its calls: active means hit-call score of the fitted dose curve at least 0.9, where 1 is the maximum; inactive means score below 0.9.
// classify into active, inactive

Answered cases to consult:
COc1ccc(CCC(C)=O)cc1 : inactive
CC(C)C[C@H](NC(=O)OCC1c2ccccc2-c2ccccc21)C(=O)O : inactive
CCC1(C)NC(=O)NC1=O (centres undefined) : inactive
O=C(O)CCCCCCCCCCCC(=O)O : inactive

Okay, next one:
Exercise: Please let me know the test result on file for CC1CCC(C(C)C)C(O)C1 (centres undefined) .
Solution: inactive

====

# assay_remarks: ATG_NRF2_ARE_CIS: Attagene CIS-FACTORIAL HepG2 Assay for human Nuclear Factor Erythroid 2 Related Factor 2 (NFR2) response to Antioxidant Response Elements (ARE) (AID 2282992)
# condition_context: HepG2 Attagene ARE/NRF2 reporter, transcription factor activity; actives raise or lower the signal
Activity calls are given as the source filed them. Rule for the calls: active = hit-call score of the fitted dose curve at least 0.9, where 1 is the maximum; inactive = score below 0.9.
// classify into Yes for active, No for inactive

Exercise: Please let me know the test result on file for CC/C=C\CC/C=C/CO .
Solution: Yes

Exercise: Please let me know the test result on file for N#Cc1ccc(CC(=O)c2cccc(C(F)(F)F)c2)cc1 .
Solution: Yes

Exercise: Please let me know the test result on file for Cc1ccc(N)c(S(=O)(=O)O)c1 .
Solution: No

Exercise: Please let me know the test result on file for CCC(C)S (stereo not drawn) .
Solution: No

Exercise: Please let me know the test result on file for CCCCCCC(C)(C)S .
Solution: No

Exercise: Please let me know the test result on file for Cc1ccc(S(N)(=O)=O)cc1 .
Solution: No

====

# system: Nuclear receptor subfamily 1 group I member 2 (Homo sapiens)
# assay_remarks: ATG_PXR_TRANS: Attagene TRANS-FACTORIAL HepG2 Assay for human Pregnane X Receptor (PXR) (AID 2283008)
Results filed as inconclusive are left out. Active and inactive are the calls of the source. Rule for the calls: active = hit-call score of the fitted dose curve at least 0.9, where 1 is the maximum; inconclusive = response in the unintended direction; inactive = score below 0.9.
endpoint: AC50

Here is how some molecules turned out for AC50.
CCCCCCCCCCCCCC(=O)OCC(O)CO (stereo not given) : inactive
CC/C=C\CCOC(=O)CC : inactive
CC(=O)O[C@H]1C[C@@H]2CC[C@@]1(C)C2(C)C : inactive
CC1=C(Br)C(=O)C(Br)=C/C1=C(/c1ccccc1S(=O)(=O)O)c1cc(Br)c(O)c(Br)c1C : 29.6 µM (active)

From here, focus on the item given below.
Exercise: Sample CCCCC(CC)COC(=O)c1ccc(O)cc1 (stereo not given) — what was its AC50?
Solution: 20.7 µM (active)

====

# system: X-box-binding protein 1 (Homo sapiens) (UniProt P17861)
# Sequence (P17861 whole entry, looked up): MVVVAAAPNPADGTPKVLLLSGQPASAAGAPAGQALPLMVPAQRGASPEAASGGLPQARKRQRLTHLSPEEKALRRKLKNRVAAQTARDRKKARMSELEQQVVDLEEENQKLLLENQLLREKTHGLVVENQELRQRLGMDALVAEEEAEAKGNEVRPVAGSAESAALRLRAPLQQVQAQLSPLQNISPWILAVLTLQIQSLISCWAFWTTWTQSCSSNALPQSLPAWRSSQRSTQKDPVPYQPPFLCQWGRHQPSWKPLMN
# assay_remarks: ATG_Xbp1_CIS: Attagene CIS-FACTORIAL HepG2 Assay for human X-box Binding Protein 1 (XBP1) (AID 2282972)
# condition_context: HepG2 XBP1 cis-element reporter, Attagene multiplex; actives raise or lower the signal
The source made the active and inactive calls. The calls were made as follows: active = hit-call score of the fitted dose curve at least 0.9, where 1 is the maximum; inactive = score below 0.9.
// classify into active, inactive

Answered cases to consult:
CC(=O)O[C@@H]1C[C@@H]2CC[C@@]1(C)C2(C)C : inactive
CS(C)=O : inactive
CCOC(=O)CC(C)O (centres undefined) : inactive

Exercise: Please let me know the test result on file for CC(C)(C)CC(C)(C)c1ccc(OCCOCC[N+](C)(C)Cc2ccccc2)cc1 .
Solution: inactive

Exercise: Please let me know the test result on file for NCCNc1cccc2ccccc12 .
Solution: active

====

# assay_remarks: ATG_PXRE_CIS: Attagene CIS-FACTORIAL HepG2 Assay for human Pregnane X Receptor Element (PXRE) (AID 2282957)
# condition_context: HepG2 Attagene CIS-FACTORIAL PXRE reporter, mRNA; actives raise or lower the signal
Calls of active or inactive are those of the source. How the source made its calls: active means hit-call score of the fitted dose curve at least 0.9, where 1 is the maximum; inactive means score below 0.9.
endpoint: outcome

CC(O)C1CCCCC1 (stereo not drawn) : inactive
CC(C)Nc1nc(N)nc(Cl)n1 : inactive
CC(C)CCCCCCCCCCCCCCC(=O)O : inactive
